System: ACHN renal
Test: NCI-60 one-dose screen, 48 h (100 = growth as untreated, 0 = no growth, -100 = all killed)
Conditions: 10 µM
About 83,000 compounds went through this panel and 20% of them were active in at least one assay; those are over-represented in the sample as a whole.
So I've got a bunch of compounds here, and I need their growth values.
Give bare numbers, in %.

INSERT INTO assay_data (compound, assay_metric, unit_info, measured_number) VALUES
  ('CCN1CCOC1C(C)C (configuration not stated)', 'growth', '%', 102),
  ('CCNC1(NC#N)CCCCC1', 'growth', '%', 111),
  ('Oc1ccccc1-c1nnc(Cn2c(Cc3cccc4ccccc34)nc3ccccc32)o1', 'growth', '%', 93.9),
  ('Cc1noc(C)c1-c1ccc2nc(NC(=O)[C@H]3CCN(C#N)C3)cn2c1', 'growth', '%', 65.3);

For every item in the list below, what is its measured growth?
1. O=C(NNC(=O)c1ccncc1)Nc1ccc([N+](=O)[O-])cc1
2. CN(C1c2ccccc2Oc2ccccc21)S(=O)(=O)c1cc(Cl)ccc1Cl
3. Cc1nc2sccn2c1-c1csc(Nc2cccc(Cl)c2C)n1
4. COc1cc(C2C=C(c3ccc(Cl)cc3)N=C3SC(C)=CN32)cc(OC)c1OC (configuration not stated)

stdout:
1. 101
2. 53.4
3. 60.3
4. 105

For every item in the list below, what is its measured growth?
1. COc1cccc(C(=O)NNc2nc(N3CCOCC3)nc(N3CCN(C(c4ccccc4)c4ccccc4)CC3)n2)c1
2. O=C(O)c1cc(C(F)(F)F)cc(C(F)(F)F)c1
3. CC(=O)[C@H]1CC[C@H]2[C@@H]3CC[C@@H]4CC=C(C=O)C[C@]4(C)[C@H]3CC[C@]12C

stdout:
1. 76.3
2. 105
3. 92.4

For every item in the list below, what is its measured growth?
1. COc1cc(C2C(C#N)=C(c3c[nH]c4ccccc34)Nc3nc(N)[nH]c(=O)c32)cc(OC)c1OC (configuration not stated)
2. CC(C)(C)c1ccc(OCCCCCCN2CCNCC2)cc1
3. CCc1c(C)[nH]c(=O)c(C(N)=O)c1C#N

stdout:
1: 95; 2: 70.6; 3: 102

For every item in the list below, what is its measured growth?
1. CCN(CC)c1ccc(/C=C/C2=[N+](C)c3ccccc3C2(C)C)c(C)c1
2. COc1ccc(-c2cc(/C=C3\C(=O)Nc4cc(Cl)ccc43)[nH]n2)cc1OC
3. O=C(COCc1c(-c2ccccc2)no[n+]1[O-])Nc1nc(-c2ccc(Cl)cc2)cs1
4. CCc1ccc(-c2nnc(COc3ccc(-c4nc5cc(Cl)c(Cl)cc5[nH]4)cc3OC)o2)cc1
5. Cc1ccc(S(=O)(=O)N2CCc3ccccc3CC2)cc1
6. CNC(=O)c1cc(Oc2ccc(NC(=O)Nc3ccc(Cl)c(C(C)(C)C)c3)c(F)c2)ccn1
7. COc1ccc(/C=C(\c2cc(OC)c(OC)c(OC)c2)c2nnc(-c3cccs3)o2)cc1

stdout:
1. 5.97
2. 84.3
3. 112
4. 31
5. 85.5
6. 31.5
7. 75.3

// assay ACHN renal, entry `c1ccc(OCCC[P+](c2ccccc2)(c2ccccc2)c2ccccc2)cc1` , growth value = 66

###

Test system: IGROV1 ovarian
Experiment: NCI-60 one-dose screen, 48 h
Conditions: 10 µM
The panel holds about 83,000 compounds, 20% with a hit somewhere; the sample as a whole holds those more often. Active and inactive are the calls of the source. How the source made its calls: active means growth percent below 10; inactive means the rest.
Choose one outcome from this list and give only that: active, inactive

Some entries whose results are on file:
INSERT INTO results (molecule, label_class) VALUES
  ('O=C(NC1CCN(Cc2ccccc2)CC1)c1cc(-c2ccncc2)nc2ccc(Cl)cc12', 'inactive'),
  ('COc1ccc(-c2ccc(-c3ccc(C(=N)N)c(F)c3)s2)cc1', 'active'),
  ('COc1ccc(C2=NNC(c3sc(Cl)nc3Cl)C2)cc1 (stereo not given)', 'inactive'),
  ('c1ccc(CNc2nc(Nc3ccc(-c4nc5ccccc5[nH]4)cc3)c3cn[nH]c3n2)cc1', 'inactive'),
  ('CS(=O)(=O)Nc1ccc(OCc2nnc(-c3ccc(Cl)cc3)o2)c(F)c1', 'inactive'),
  ('CS(=O)(=O)Nc1ccc(Nc2c3ccccc3nc3cc(Cl)ccc23)cc1', 'inactive');

stdin: Hi, do you know how COc1ccc(C2C=C(c3ccc(OC)c(OC)c3)N=C3SC=CN32)c(Br)c1 (stereo not given) came out in this test?
stdout: inactive

stdin: Hi, do you know how `Cc1ccc(-n2c(-c3cc4c([nH]c5ccccc54)c(-c4cccc(O)c4)n3)n[nH]c2=S)cc1` came out in this test?
stdout: active

stdin: Hi, do you know how `CCc1cc2n(n1)-c1ncc(C(=O)OC)cc1Oc1ccccc1-2` came out in this test?
stdout: inactive

stdin: Hi, do you know how CC(=O)Oc1c(C)c(C)c2c(c1C)CCC(C)(CC(=O)OCCCCCCCCCCC[P+](c1ccccc1)(c1ccccc1)c1ccccc1)O2 (stereo not given) came out in this test?
stdout: active

###

Test system: HS 578T breast
Test: NCI-60 one-dose screen, 48 h (100 = growth as untreated, 0 = no growth, -100 = all killed)
Details: 10 µM
Compounds without any hit were thinned out: in the full panel of roughly 83,000, 20% have a hit.
Class key for growth values: A = under 50%, B = from 50% up to 80%, C = 80% and over

INSERT INTO results (molecule, label_class) VALUES
  ('Cc1ccc([P+](Cc2ccc([N+](=O)[O-])cc2)(c2ccc(C)cc2)c2ccc(C)cc2)cc1', 'C'),
  ('Nc1ccc(C2=CC(c3ccc(Cl)cc3)N3C=CSC3=N2)cc1 (stereo not given)', 'A'),
  ('O=C(NCCc1nccs1)c1cnc2c(S)cccc2c1', 'A'),
  ('Cc1cc(Nc2cccc(F)c2)nc(NCc2ccccc2)n1', 'B');

stdin: Lab note: which band did `COc1ccc(-c2nnc(SCC(=O)c3ccccc3)o2)cc1` land in?
stdout: C

stdin: Lab note: which band did `COc1ccc2oc(=O)cc(C(c3ccc[nH]3)c3ccc[nH]3)c2c1` land in?
stdout: A

stdin: Lab note: which band did `O=C(CCCC(=O)N/N=C/c1cc(Cl)ccc1O)N/N=C\c1cc(Cl)ccc1O` land in?
stdout: B

###

Tested on: PC-3 prostate
Test: NCI-60 one-dose screen, 48 h (100 = growth as untreated, 0 = no growth, -100 = all killed)
Conditions: 10 µM
Compounds without any hit were thinned out: in the full panel of roughly 83,000, 20% have a hit.
Please enter label 1 where growth is greater than or equal to 90%, and label 0 where it is lower.

stdin: // inclusive: growth at least 90%? input: `COc1cc(Cn2c(-c3ccccc3)cc3c2-c2oncc2CC3)cc(OC)c1`
stdout: label 0

stdin: // inclusive: growth at least 90%? input: CCN(CC)CC(O)Cc1ccc(OC)cc1 (stereo not drawn)
stdout: label 1

stdin: // inclusive: growth at least 90%? input: `COc1cc(-c2nc3ccc(C)cc3[nH]2)ccc1OCC(=O)N=Nc1c(O)[nH]c2ccccc12`
stdout: label 0

stdin: // inclusive: growth at least 90%? input: CC[C@@]1(C(N)=O)CC2C=CC1C2 (stereo partly drawn)
stdout: label 1

###

Test system: NCI/ADR-RES ovarian
Experiment: NCI-60 one-dose screen, 48 h (100 = growth as untreated, 0 = no growth, -100 = all killed)
Details: 10 µM
Compounds without any hit were thinned out: in the full panel of roughly 83,000, 20% have a hit.
assay.metric: growth (%)
Give bare numbers, in %.

Below, each entry is followed by its recorded growth result.
INSERT INTO results (molecule, measured_number) VALUES
  ('CCCc1c(CC)c(=N)c2ccccc2n1C', 78.6),
  ('COc1ccc(-c2nsc3c2NC(=O)CC3c2ccc(Cl)cc2)cc1 (stereo unspecified)', 81.1),
  ('Nc1cc(O)cc(O)c1', 99.7);

For every item in the list below, what is its measured growth?
1. O=c1[nH]c(=O)n(C2C[C@@H](O)[C@@H](CO)O2)cc1F (stereo partly specified)
2. NC(N)=NS(=O)(=O)c1ccc(Nc2ccc3nnc(-c4ccncc4)n3n2)cc1
3. COc1cccc2c1O/C(=C\c1ncc([N+](=O)[O-])n1C)C2=O

stdout:
1: 29.6; 2: 105; 3: -3.54

For every item in the list below, what is its measured growth?
1. COc1cc(/C=C/C(=O)c2cc(-c3ccc(C(F)(F)F)cc3)ccc2O)cc(OC)c1OC
2. CCOC(=O)[C@@H]1[C@H](c2ccccc2)[C@H]([N+](=O)[O-])[C@H](c2cn(-c3ccccc3)nc2C)N1Cc1ccccc1
3. O=S(=O)(NCl)c1ccccc1
4. CC(=O)Nc1ccc(Sc2ccc(NC(C)=O)cc2)cc1
5. COc1ccc(-c2oncc2-c2cc(OC)c3c(c2)OCO3)cc1

stdout:
65.9
71.6
103
95.7
18.5
